assay: Phase 1 Study ABI-1648-006, multiple oral dose pharmacokinetics; conditions: male, human, plasma, oral, 5 mg
OBSERVED PROPERTY: Cmax

>>> obs_value("CO[C@H]1/C=C/O[C@@]2(C)Oc3c(C)c(O)c4c(=O)c(c5oc6cc(N7CCN(CC(C)C)CC7)cc(O)c6nc-5c4c3C2=O)NC(=O)/C(C)=C\\C=C\\[C@H](C)[C@H](O)[C@@H](C)[C@@H](O)[C@@H](C)[C@H](OC(C)=O)[C@@H]1C [rifalazil]")
"17.3 ng/mL"

---

assay: Phase 1 Study ABI-1648-006, multiple oral dose pharmacokinetics; settings: male, human, plasma, oral, 2.5 mg
OBSERVED PROPERTY: AUC (ng·h/mL)

>>> obs_value("CO[C@H]1/C=C/O[C@@]2(C)Oc3c(C)c(O)c4c(=O)c(c5oc6cc(N7CCN(CC(C)C)CC7)cc(O)c6nc-5c4c3C2=O)NC(=O)/C(C)=C\\C=C\\[C@H](C)[C@H](O)[C@@H](C)[C@@H](O)[C@@H](C)[C@H](OC(C)=O)[C@@H]1C")
178
